Entries and their Percent Effect values follow.
measuredTarget: Protein translocase subunit SecA (Escherichia coli (strain K12))
procedureSummary: Assay to Identify E. coli SecA ATPase Inhibitors
Assay type: functional
Design: scale not given: direction of the effect not stated beside the values
testConditions: 30 µM
Potency and affinity values are given separately.
Write down the numeric answer in % and omit the unit.

Observe how each entry below is paired with its result.
compound	readoutType	observedMeasurement
Cc1cc(C2CCCN(C(=O)c3cnccn3)C2)ccn1 (stereo unspecified)	Percent Effect	2.59
Cc1noc(C)c1CN1CCc2nn(C(C)C)c(=O)cc2C1	Percent Effect	-9.42
CC(C)CC(CNC(=O)NCc1cc[nH]n1)N1CCOCC1 (stereo unspecified)	Percent Effect	-1.69

Exam item: API: value(readout=Percent Effect, system=Protein translocase subunit SecA (Escherichia coli (strain K12))) for record Cc1nc(-c2ccsc2)ccc1C(=O)NCCN1CCOCC1
Marked response: -6.91

Exam item: API: value(readout=Percent Effect, system=Protein translocase subunit SecA (Escherichia coli (strain K12))) for record CN(CCN1CCOCC1)C(=O)CCc1cccc(Cl)c1
Marked response: -0.257

Exam item: API: value(readout=Percent Effect, system=Protein translocase subunit SecA (Escherichia coli (strain K12))) for record CC(=O)NCC(=O)N1CCN(CC2CC2)c2ncccc2C1
Marked response: -4.55
